- system_under_test: LRRK1 WT (Homo sapiens, UniProt Q38SD2)
- Sequence (Q38SD2 whole entry): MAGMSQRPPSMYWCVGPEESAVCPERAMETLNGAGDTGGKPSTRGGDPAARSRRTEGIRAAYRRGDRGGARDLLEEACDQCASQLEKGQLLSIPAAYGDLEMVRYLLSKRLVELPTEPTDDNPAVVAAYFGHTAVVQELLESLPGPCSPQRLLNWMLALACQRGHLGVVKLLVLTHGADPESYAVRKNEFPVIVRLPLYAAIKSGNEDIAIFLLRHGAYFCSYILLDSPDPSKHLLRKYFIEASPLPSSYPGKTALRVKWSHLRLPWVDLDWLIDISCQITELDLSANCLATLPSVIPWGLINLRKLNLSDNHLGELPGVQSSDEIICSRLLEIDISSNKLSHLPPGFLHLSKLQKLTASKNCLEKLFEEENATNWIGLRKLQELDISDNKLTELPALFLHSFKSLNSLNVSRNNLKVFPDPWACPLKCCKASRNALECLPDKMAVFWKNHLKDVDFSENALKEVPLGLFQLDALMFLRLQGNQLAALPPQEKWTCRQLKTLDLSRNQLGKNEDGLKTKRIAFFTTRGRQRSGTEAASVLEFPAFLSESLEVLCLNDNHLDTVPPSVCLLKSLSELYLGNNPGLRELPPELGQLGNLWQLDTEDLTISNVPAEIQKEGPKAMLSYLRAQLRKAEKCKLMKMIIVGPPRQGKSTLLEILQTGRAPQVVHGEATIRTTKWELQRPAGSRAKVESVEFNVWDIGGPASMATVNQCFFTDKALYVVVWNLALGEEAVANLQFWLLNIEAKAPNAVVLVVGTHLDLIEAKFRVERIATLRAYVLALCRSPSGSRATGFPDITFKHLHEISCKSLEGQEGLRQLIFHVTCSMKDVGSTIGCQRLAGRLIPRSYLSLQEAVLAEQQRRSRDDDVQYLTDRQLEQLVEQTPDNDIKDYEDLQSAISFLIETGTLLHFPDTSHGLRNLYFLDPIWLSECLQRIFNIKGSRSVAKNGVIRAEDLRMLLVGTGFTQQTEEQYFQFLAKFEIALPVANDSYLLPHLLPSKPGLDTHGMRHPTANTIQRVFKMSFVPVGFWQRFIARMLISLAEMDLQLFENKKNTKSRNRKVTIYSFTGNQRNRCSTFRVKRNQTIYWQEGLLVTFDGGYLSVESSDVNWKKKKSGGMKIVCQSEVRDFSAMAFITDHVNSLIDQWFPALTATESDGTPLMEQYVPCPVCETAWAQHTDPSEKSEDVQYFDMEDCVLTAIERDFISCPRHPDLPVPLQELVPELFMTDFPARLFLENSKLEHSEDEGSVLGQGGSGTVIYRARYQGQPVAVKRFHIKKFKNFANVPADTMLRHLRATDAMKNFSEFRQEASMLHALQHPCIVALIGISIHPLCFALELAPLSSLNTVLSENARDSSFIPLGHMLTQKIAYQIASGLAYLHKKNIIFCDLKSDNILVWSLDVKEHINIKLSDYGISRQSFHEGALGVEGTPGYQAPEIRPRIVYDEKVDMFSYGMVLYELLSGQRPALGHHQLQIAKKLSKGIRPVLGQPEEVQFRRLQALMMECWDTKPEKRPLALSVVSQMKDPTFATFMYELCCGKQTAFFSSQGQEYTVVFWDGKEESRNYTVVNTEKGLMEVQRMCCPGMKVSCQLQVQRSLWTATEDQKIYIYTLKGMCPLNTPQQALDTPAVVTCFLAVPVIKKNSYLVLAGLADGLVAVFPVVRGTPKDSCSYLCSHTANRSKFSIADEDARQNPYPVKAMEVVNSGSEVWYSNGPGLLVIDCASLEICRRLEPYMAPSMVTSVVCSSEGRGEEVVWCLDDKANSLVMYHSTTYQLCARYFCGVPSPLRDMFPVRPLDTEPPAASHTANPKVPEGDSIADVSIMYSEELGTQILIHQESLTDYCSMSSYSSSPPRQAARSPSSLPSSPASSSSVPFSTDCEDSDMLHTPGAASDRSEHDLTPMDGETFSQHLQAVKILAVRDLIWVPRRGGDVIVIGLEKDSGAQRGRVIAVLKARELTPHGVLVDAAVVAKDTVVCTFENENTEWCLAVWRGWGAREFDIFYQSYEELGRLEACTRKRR
- experiment_notes: In vitro kinase assay: LRRK1-mediated MBP phosphorylation
- Assay type: biochemical
assay_endpoint: effect on LRRK1 MBP phosphorylation

Supply recorded effect on LRRK1 MBP phosphorylation for O=C1Nc2ccccc2/C1=C1/Nc2ccccc2C1=O [Inhibitor 69, Indirubin] here.
no effect

Supply recorded effect on LRRK1 MBP phosphorylation for Cc1ccc(NC(=O)c2cccc(N(C)C)c2)cc1NC(=O)c1ccc(O)cc1 [Inhibitor 53, ZM336372] here.
minimal to no effect

Supply recorded effect on LRRK1 MBP phosphorylation for CNC(=O)c1cc(Oc2ccc(NC(=O)Nc3ccc(Cl)c(C(F)(F)F)c3)cc2)ccn1 [Sorafenib] here.
minimal to no effect

Supply recorded effect on LRRK1 MBP phosphorylation for COc1ccc(S(=O)(=O)N(CCO)c2ccccc2CN(C)C/C=C/c2ccc(Cl)cc2)cc1 [Inhibitor 41, KN-93] here.
no effect

* * *

- system_under_test: UniProt:Q5S007
- experiment_notes: In vitro kinase assay: LRRK2 autophosphorylation
- Type: biochemical
- recorded_conditions: compound 16 μM; phosphorylation normalized to absence of compound; mean ± S.E.M. of three experiments
Catalogue of LRRK2 autophosphorylation Average ± SEM values

Supply recorded LRRK2 autophosphorylation Average ± SEM for CC(C)(C)c1cc(/C=C(\C#N)C(N)=S)cc(C(C)(C)C)c1O here.
69.8 ± 12.0 % of control

---
Supply recorded LRRK2 autophosphorylation Average ± SEM for O=C(O)c1cc(N(Cc2ccccc2O)Cc2cc(O)ccc2O)ccc1O here.
84.3 ± 21.1 % of control

Supply recorded LRRK2 autophosphorylation Average ± SEM for C#COC1(C)[C@@H]2CC[C@@H](O2)C1(C)C(=O)O (some centres unmarked) here.
75.9 ± 2.1 % of control

Supply recorded LRRK2 autophosphorylation Average ± SEM for Cc1cc2ncc(-c3ccccc3)nc2cc1C here.
89.4 ± 12.5 % of control

Supply recorded LRRK2 autophosphorylation Average ± SEM for C/C(O)=C(\C#N)C(=O)Nc1cc(Br)ccc1Br here.
66.8 ± 14.2 % of control

* * *

- system_under_test: LRRK2 WT (Homo sapiens, UniProt Q5S007)
- Sequence (Q5S007 whole entry): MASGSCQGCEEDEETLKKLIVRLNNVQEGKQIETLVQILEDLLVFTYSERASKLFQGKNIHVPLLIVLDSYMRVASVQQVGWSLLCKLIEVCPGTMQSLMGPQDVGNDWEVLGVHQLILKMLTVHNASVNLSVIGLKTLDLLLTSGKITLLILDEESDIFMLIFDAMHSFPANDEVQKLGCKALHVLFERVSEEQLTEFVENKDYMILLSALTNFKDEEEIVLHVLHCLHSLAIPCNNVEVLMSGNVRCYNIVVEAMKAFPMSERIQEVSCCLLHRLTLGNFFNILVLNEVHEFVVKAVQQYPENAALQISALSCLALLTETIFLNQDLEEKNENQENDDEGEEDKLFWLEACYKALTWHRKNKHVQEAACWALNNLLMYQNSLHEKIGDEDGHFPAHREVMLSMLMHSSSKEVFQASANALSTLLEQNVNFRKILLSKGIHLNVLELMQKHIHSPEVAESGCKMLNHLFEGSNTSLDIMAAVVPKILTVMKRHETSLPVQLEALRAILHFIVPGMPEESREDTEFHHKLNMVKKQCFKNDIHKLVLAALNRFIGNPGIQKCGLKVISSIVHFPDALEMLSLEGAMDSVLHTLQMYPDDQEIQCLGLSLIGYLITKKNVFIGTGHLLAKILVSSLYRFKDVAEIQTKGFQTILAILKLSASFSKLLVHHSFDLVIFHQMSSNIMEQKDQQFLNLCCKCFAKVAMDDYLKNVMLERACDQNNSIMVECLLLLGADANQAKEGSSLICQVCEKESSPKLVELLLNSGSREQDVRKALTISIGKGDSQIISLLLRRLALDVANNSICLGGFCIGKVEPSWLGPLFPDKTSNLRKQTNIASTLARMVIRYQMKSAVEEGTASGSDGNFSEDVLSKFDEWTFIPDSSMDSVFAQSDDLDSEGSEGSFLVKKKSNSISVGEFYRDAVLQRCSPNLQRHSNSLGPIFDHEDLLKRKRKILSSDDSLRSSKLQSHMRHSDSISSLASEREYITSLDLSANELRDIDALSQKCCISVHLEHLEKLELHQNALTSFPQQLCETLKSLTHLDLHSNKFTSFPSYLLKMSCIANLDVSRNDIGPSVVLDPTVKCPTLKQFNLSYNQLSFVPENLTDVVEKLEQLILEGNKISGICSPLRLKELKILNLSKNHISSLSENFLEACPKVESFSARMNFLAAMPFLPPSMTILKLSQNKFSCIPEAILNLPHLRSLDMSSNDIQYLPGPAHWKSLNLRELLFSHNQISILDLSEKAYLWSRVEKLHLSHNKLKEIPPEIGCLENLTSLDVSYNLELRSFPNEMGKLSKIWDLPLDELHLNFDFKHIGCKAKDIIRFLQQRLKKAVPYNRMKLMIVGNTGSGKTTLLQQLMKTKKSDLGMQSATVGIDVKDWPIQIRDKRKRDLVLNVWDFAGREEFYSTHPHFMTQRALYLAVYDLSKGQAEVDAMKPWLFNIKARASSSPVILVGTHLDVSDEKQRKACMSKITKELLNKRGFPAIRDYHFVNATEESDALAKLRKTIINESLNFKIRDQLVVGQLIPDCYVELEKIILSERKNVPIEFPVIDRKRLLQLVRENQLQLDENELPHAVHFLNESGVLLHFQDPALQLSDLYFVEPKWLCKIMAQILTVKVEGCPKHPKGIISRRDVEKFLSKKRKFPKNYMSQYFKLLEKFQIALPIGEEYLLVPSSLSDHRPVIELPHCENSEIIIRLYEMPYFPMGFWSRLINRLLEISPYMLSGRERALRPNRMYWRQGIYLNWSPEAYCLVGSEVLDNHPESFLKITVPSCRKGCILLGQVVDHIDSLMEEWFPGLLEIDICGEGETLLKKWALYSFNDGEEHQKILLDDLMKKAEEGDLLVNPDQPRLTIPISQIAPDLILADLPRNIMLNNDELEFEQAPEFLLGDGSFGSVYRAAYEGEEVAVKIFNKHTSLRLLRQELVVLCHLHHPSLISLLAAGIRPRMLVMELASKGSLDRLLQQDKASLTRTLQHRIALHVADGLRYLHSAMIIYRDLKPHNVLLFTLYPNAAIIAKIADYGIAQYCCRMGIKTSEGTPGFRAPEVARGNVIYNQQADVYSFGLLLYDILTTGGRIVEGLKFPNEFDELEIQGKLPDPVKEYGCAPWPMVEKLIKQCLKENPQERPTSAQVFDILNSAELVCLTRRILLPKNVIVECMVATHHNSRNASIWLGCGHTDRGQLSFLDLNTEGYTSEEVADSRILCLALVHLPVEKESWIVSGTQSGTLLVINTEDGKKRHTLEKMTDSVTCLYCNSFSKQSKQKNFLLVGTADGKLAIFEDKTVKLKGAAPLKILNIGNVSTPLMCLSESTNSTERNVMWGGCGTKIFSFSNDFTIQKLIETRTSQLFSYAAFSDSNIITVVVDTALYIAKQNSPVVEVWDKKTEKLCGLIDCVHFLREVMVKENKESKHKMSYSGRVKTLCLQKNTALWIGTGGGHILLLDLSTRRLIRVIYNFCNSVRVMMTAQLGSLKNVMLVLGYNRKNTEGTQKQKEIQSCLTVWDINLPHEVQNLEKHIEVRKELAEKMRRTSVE
- experiment_notes: In vitro kinase assay: LRRK2-mediated MBP phosphorylation
- Type: biochemical
- recorded_conditions: Table 2; mean of three experiments
Catalogue of IC50 values
Please reply with the bare figure in nM and do not write the unit itself.

Illustrative cases are given below, each with its answer.
Provide IC50, system LRRK2 WT (Homo sapiens, UniProt Q5S007), entry Cn1cc(C2=C(c3cn(CCCSC(=N)N)c4ccccc34)C(=O)NC2=O)c2ccccc21 [Inhibitor 33, Ro31-8220, reference compound]
50

Provide IC50, system LRRK2 WT (Homo sapiens, UniProt Q5S007), entry O=C1Nc2ccc(I)cc2/C1=C/c1cc(Br)c(O)c(Br)c1
3150

Provide IC50, system LRRK2 WT (Homo sapiens, UniProt Q5S007), entry O=C1c2ccccc2-c2n[nH]c3cccc1c23 [Inhibitor 68, SP600125, reference compound]
3100

---
Provide IC50, system LRRK2 WT (Homo sapiens, UniProt Q5S007), entry CN(C)CCCn1cc(C2=C(c3c[nH]c4ccccc34)C(=O)NC2=O)c2ccccc21 [Inhibitor 31, GP109203X, reference compound]
2190
